- STUDY TARGET: furin, P09958;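 note: purified furin at 1:10 enzyme:substrate in 50 mM HEPES pH 7.5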
- Sequence (P09958 whole entry): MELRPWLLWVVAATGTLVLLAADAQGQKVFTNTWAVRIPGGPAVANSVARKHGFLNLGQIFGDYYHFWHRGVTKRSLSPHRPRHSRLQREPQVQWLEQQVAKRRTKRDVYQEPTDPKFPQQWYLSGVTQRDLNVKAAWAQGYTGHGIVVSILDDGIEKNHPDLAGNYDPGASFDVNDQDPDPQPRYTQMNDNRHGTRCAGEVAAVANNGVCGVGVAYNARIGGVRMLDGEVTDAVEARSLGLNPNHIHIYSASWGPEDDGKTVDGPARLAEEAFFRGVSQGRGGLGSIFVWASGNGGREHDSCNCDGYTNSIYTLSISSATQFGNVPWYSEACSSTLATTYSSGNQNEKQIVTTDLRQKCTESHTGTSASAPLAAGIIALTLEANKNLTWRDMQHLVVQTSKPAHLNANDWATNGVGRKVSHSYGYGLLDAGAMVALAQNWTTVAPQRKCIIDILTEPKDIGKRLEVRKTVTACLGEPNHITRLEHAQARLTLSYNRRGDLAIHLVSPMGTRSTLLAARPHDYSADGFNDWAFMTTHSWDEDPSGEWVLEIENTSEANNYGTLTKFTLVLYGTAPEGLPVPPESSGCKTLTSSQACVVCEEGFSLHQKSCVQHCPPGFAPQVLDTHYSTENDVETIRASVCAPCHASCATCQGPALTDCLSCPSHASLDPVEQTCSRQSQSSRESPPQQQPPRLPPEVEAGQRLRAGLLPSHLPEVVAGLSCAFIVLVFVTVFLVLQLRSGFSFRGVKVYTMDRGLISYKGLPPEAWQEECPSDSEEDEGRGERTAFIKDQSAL
- PROTOCOL DETAILS: furin cleavage Z-score vs untreated control; higher = more cleavage, active = 3.5 or more, inactive = 1 or less, 8 variable residues between constant flanks
- CONDITION: 7.5 min
This is one part of the list. The hit rate among all sequences tested is not known here.
Labels: label 1 for active, label 0 for inactive

MACROMOLECULE SEQUENCE: CARMKRAGRVAGNASASA [FS-1751]
GROUP LABEL: label 1
--
MACROMOLECULE SEQUENCE: CALYREFDEMAGNASASA [HC1011]
GROUP LABEL: label 0
--
MACROMOLECULE SEQUENCE: CAGKRRFRRQAGNASASA [FS-783]
GROUP LABEL: label 1
--
MACROMOLECULE SEQUENCE: CASTPCSLHLAGNASASA [HC2525]
GROUP LABEL: label 0
--
MACROMOLECULE SEQUENCE: CATTPCSGKWAGNASASA [HC1914]
GROUP LABEL: label 0
--
MACROMOLECULE SEQUENCE: CARGKRHLQGAGNASASA [FS-2671]
GROUP LABEL: label 1
--
MACROMOLECULE SEQUENCE: CAPPCVIGGAAGNASASA [HC444]
GROUP LABEL: label 0
--
MACROMOLECULE SEQUENCE: CAKMIGGHYVAGNASASA [HC624]
GROUP LABEL: label 0
--
MACROMOLECULE SEQUENCE: CAAETHVTGGAGNASASA [HC352]
GROUP LABEL: label 0
--
MACROMOLECULE SEQUENCE: CAMEECKQHLAGNASASA [HC31]
GROUP LABEL: label 0
--
MACROMOLECULE SEQUENCE: CACQRGYKGVAGNASASA [HC1166]
GROUP LABEL: label 0
--
MACROMOLECULE SEQUENCE: CARHLREKRFAGNASASA [FS-706]
GROUP LABEL: label 1
--
MACROMOLECULE SEQUENCE: CAASQLSAPSAGNASASA [HC1262]
GROUP LABEL: label 0
--
MACROMOLECULE SEQUENCE: CARHLRNVYAAGNASASA [FS-2940]
GROUP LABEL: label 0
